Molecular target: AGE-BSA (Bos taurus)
Construct: Bovine serum albumin (fraction V) (BSA); from tissue; host or cells: bovine serum (fraction V); glycated in house with 1.6 M glucose at 37 °C for 16 weeks
Assay: In-vitro AGE breaking activity by ELISA
Type: biochemical, Bovine
Details: 5 mM test compound, 37° C., 24 hours
Experimental: AGE breaking activity has been confirmed by the screening procedure as mentioned below: Methods of experiment: Elisa (Enzyme Linked Immunosorbent Assay) […] To determine the AGE breaking activity, 10 μg/ml of the 16 weeks AGE-BSA was incubated with different concentrations of the test compounds at 37° C. for 24 hours and AGE breaking activity of the test compounds by ELISA was determined. […] The breaker activity of the compounds were determined by the following formula: [formula] […]
Entries annotated with measured % Breakage
endpoint: % Breakage (%)

INSERT INTO assay_data (molecule, reported_result) VALUES
  ('O=C(NNC(=O)c1ccc[n+](CC(=O)c2cccs2)c1)c1ccc[n+](CC(=O)c2cccs2)c1.[Cl-].[Cl-] [Compound 33]', 20),
  ('O=C(NNC(=O)c1ccc[n+](CC(=O)c2cccs2)c1)c1ccc[n+](CC(=O)c2cccs2)c1.[Br-].[Br-] [Compound 6]', 53),
  ('O=C(C[n+]1cccc(C(=O)NNC(=O)c2ccc[n+](CC(=O)c3ccccc3)c2)c1)c1ccccc1.[Br-].[Br-] [Compound 1]', 13),
  ('COCCNC(=O)c1ccc[n+](CC(=O)c2ccc(Cl)cc2Cl)c1.[Br-] [Compound 38]', 17.66),
  ('O=C(C[n+]1cccc(C(=O)NNC(=O)c2ccc[n+](CC(=O)NC3CC3)c2)c1)NC1CC1.[Cl-].[Cl-] [Compound 39]', 22.8);

---

Molecular target: AGE-BSA (Bos taurus, UniProt P02769)
Construct: Bovine serum albumin (fraction V) (BSA); from tissue; host or cells: bovine serum (fraction V); glycated in house with 1.6 M glucose at 37 °C for 16 weeks
Sequence (P02769 25-607): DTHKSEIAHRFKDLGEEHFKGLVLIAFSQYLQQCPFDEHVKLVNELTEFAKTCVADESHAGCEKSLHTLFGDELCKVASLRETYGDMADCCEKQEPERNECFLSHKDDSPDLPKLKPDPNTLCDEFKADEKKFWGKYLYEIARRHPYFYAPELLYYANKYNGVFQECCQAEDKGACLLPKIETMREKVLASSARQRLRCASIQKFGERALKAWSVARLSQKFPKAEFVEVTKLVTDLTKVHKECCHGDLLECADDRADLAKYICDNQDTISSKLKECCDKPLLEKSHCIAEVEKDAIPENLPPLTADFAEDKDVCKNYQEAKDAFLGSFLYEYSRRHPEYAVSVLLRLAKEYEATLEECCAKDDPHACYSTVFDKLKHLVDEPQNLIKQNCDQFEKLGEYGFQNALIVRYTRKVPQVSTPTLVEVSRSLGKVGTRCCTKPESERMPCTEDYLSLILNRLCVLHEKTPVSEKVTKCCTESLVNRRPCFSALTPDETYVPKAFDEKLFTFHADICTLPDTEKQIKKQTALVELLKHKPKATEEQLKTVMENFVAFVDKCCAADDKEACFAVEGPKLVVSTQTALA
Experiment: In-vitro AGE breaking activity by ELISA
Assay type: biochemical, Bovine
Conditions: 10 mM test compound, 37° C., 24 hours
Binary classification by % Breakage, with 30% as an inclusive lower bound for fulfilled; all other cases are not fulfilled.

INSERT INTO results (compound, group) VALUES
  ('O=C(NNC(=O)c1ccc[n+](CC(=O)c2cc([N+](=O)[O-])cs2)c1)c1ccc[n+](CC(=O)c2cc([N+](=O)[O-])cs2)c1.[Cl-].[Cl-]', 'fulfilled'),
  ('COCCNC(=O)c1ccc[n+](CC(=O)NC2CC2)c1.[Cl-]', 'not fulfilled'),
  ('CCOC(=O)C1CCCN1C(=O)C[n+]1cccc(C(=O)NNC(=O)c2ccc[n+](CC(=O)N3CCCC3C(=O)OCC)c2)c1.[Cl-].[Cl-] (centres unmarked)', 'not fulfilled'),
  ('Cc1ccc(C(=O)C[n+]2cccc(C(=O)NNS(C)(=O)=O)c2)s1.[Cl-]', 'not fulfilled'),
  ('CCCCOC(=O)c1ccc[n+](CC(=O)Nc2ccccc2)c1.[Cl-]', 'fulfilled'),
  ('CCOC(=O)C[n+]1cccc(C(=O)NCCO)c1.[Br-]', 'fulfilled'),
  ('CC(C)NC(=O)C[n+]1cccc(C(=O)NNS(C)(=O)=O)c1.[Cl-]', 'not fulfilled'),
  ('O=C(NCCO)c1ccc[n+](CC(=O)c2cccs2)c1.[Br-]', 'fulfilled'),
  ('O=C(NNC(=O)c1ccc[n+](CC(=O)c2ccco2)c1)c1ccc[n+](CC(=O)c2ccco2)c1.[Br-].[Br-]', 'not fulfilled'),
  ('CC(=O)OCCOC(=O)c1ccc[n+](CC(=O)c2ccccc2)c1.[Br-]', 'not fulfilled'),
  ('CCOC(=O)C1CCCN1C(=O)C[n+]1cccc(C(=O)NNS(C)(=O)=O)c1.[Cl-] (centres unmarked)', 'not fulfilled'),
  ('CCCCNC(=O)c1ccc[n+](CC(=O)Nc2ccccc2)c1.[Cl-]', 'not fulfilled'),
  ('O=C(NNC(=O)c1ccc[n+](CC(=O)c2ccc(Cl)s2)c1)c1ccc[n+](CC(=O)c2ccc(Cl)s2)c1.[Cl-].[Cl-]', 'fulfilled'),
  ('NC(=O)c1ccc[n+](CC(=O)c2cccs2)c1.[Br-]', 'not fulfilled'),
  ('Cc1ccc(C(=O)C[n+]2cccc(C(=O)NNC(=O)c3ccc[n+](CC(=O)c4ccc(C)s4)c3)c2)s1.[Cl-].[Cl-]', 'fulfilled'),
  ('COCCNC(=O)c1cc(Br)c[n+](CC(=O)c2cccs2)c1.[Cl-]', 'fulfilled'),
  ('CS(=O)(=O)NNC(=O)c1ccc[n+](CC(=O)c2cc([N+](=O)[O-])cs2)c1.[Br-]', 'fulfilled'),
  ('O=C(C[n+]1cccc(C(=O)NCCOC(=O)c2ccccc2)c1)Nc1ccccc1.[Cl-]', 'fulfilled'),
  ('CCOC(=O)C1CSCN1C(=O)C[n+]1cccc(C(=O)NNS(C)(=O)=O)c1.[Cl-] (centres unmarked)', 'not fulfilled'),
  ('O=C(NNS(=O)(=O)C(F)(F)F)c1ccc[n+](CC(=O)c2cccs2)c1.[Br-]', 'fulfilled'),
  ('CC(C)S(=O)(=O)NNC(=O)c1ccc[n+](CC(=O)c2cccs2)c1.[Br-]', 'fulfilled'),
  ('CCOC(=O)C[n+]1cccc(C(=O)OCCOC(=O)c2ccccc2)c1.[Br-]', 'not fulfilled'),
  ('O=C(C[n+]1ccc(C(=O)NCCOC(=O)c2ccccc2)cc1)Nc1ccccc1.[Cl-]', 'not fulfilled'),
  ('O=C(NNC(=O)c1cccnc1Cl)c1ccc[n+](CC(=O)c2cccs2)c1.[Cl-]', 'not fulfilled'),
  ('O=C(C[n+]1ccsc1)c1ccccc1.[Br-] [PTB, reference compound]', 'not fulfilled'),
  ('CS(=O)(=O)NNC(=O)c1ccc[n+](CC(=O)N2CCC(Cc3ccccc3)CC2)c1.[Cl-]', 'not fulfilled'),
  ('COCCOC(=O)c1ccc[n+](CC(=O)c2ccc(Cl)cc2Cl)c1.[Br-]', 'not fulfilled'),
  ('CS(=O)(=O)NNC(=O)c1ccc[n+](CC(=O)c2ccc(Cl)s2)c1.[Br-]', 'fulfilled'),
  ('CS(=O)(=O)NNC(=O)c1ccc[n+](CC(=O)c2cccs2)c1.[Br-]', 'not fulfilled'),
  ('CS(=O)(=O)NNC(=O)c1ccc[n+](CC(=O)c2cccs2)c1.[Cl-]', 'not fulfilled'),
  ('CCOC(=O)NNC(=O)c1ccc[n+](CC(=O)c2cccs2)c1.[Br-]', 'fulfilled');
